- Read-out: Cytochrome P450 4A22 (Homo sapiens)
- ASSAY OVERVIEW: LTEA_HepaRG_CYP4A22: Life Technologies and Expression Analysis (LTEA) Assay for Cytochrome P450 4A22 (CYP4A22) using HepaRG (AID 2283495)
- EXPERIMENTAL PARAMETERS: mRNA level, 48 h; actives raise or lower the signal
Activity calls are given as the source filed them. How the source made its calls: active means hit-call score of the fitted dose curve at least 0.9, where 1 is the maximum; inactive means score below 0.9.
Response enum: true (active), false (inactive)

Example entries begin here.
{"columns": ["COMPOUND", "CLASS NAME"],
 "data": [
  ["c1ccc2ccccc2c1", "false"],
  ["CN(C)c1ccc(C(=C2C=CC(=[N+](C)C)C=C2)c2ccc(N(C)C)cc2)cc1", "true"],
  ["Clc1ccccc1C(c1ccccc1)(c1ccccc1)n1ccnc1", "true"],
  ["CC(C)(C)c1csc(-c2cc3cc(OCc4ccccc4CC(=O)O)ccc3o2)n1", "true"],
  ["CCCCOC(=O)c1ccc(O)cc1", "false"],
  ["OC12N=C(c3ccccc3)SC1Cc1cc(Cl)ccc12 (stereo unspecified)", "true"],
  ["O=C(Nc1ccc(Cl)cc1)Nc1ccc(Cl)c(Cl)c1", "true"],
  ["CCN(Cc1cccc(S(=O)(=O)O)c1)c1ccc(C(=C2C=CC(=[N+](CC)Cc3cccc(S(=O)(=O)O)c3)C=C2)c2ccccc2S(=O)(=O)[O-])cc1", "false"],
  ["CN(C)C(=O)C1(N2CCCCC2)CCN(CC[C@@]2(c3ccc(Cl)c(Cl)c3)CN(C(=O)c3ccccc3)CCO2)CC1", "false"],
  ["Oc1ccc2ccccc2c1", "false"]
]}

Please look at the following compound next.
Request: Kindly provide the recorded test outcome for the following compound: `CCCCCCCCOC(=O)c1cc(O)c(O)c(O)c1`
Result: false

====

- Read-out: Potassium channel subfamily K member 1 (KCNK1), KCNK1 (gene 3775)
- ASSAY OVERVIEW: LTEA_HepaRG_KCNK1: Life Technologies and Expression Analysis (LTEA) Assay for Potassium channel subfamily K member 1 (KCNK1) using HepaRG (AID 2283511)
- EXPERIMENTAL PARAMETERS: mRNA level, 48 h; actives raise or lower the signal
Calls of active or inactive are those of the source. Rule for the calls: active = hit-call score of the fitted dose curve at least 0.9, where 1 is the maximum; inactive = score below 0.9.
Respond using exactly one of the listed classes: yes for active, no for inactive

// below: answered compounds
{"columns": ["MOLECULAR STRING", "CLASS NAME"],
 "data": [
  ["CC1(C)NC(=O)N(c2ccc([N+](=O)[O-])c(C(F)(F)F)c2)C1=O", "no"],
  ["CC(C)(C)c1cc(/C=C2\\SC(N)=NC2=O)cc(C(C)(C)C)c1O", "no"],
  ["CCCCCCCCCCCCO", "no"]
]}

Request: What classification did `C[C@]12CC[C@@H]3c4ccc(O)cc4CC[C@H]3[C@@H]1CC[C@H]2O` end up with in this test?
Result: no

Request: I'd appreciate the recorded outcome for `CCN(Cc1cccc(S(=O)(=O)O)c1)c1ccc(C(=C2C=CC(=[N+](CC)Cc3cccc(S(=O)(=O)O)c3)C=C2)c2ccccc2S(=O)(=O)[O-])cc1` from this test.
Result: no

====

- Read-out: Phosphatase and tensin (PTEN), PTEN (gene 5728)
- ASSAY OVERVIEW: LTEA_HepaRG_PTEN: Life Technologies and Expression Analysis (LTEA) Assay for Phosphatase and tensin (PTEN) using HepaRG (AID 2283523)
- EXPERIMENTAL PARAMETERS: mRNA level, 48 h; actives raise or lower the signal
Calls of active or inactive are those of the source. The calls were made as follows: active = hit-call score of the fitted dose curve at least 0.9, where 1 is the maximum; inactive = score below 0.9.
Please state which outcome applies, choosing from active, inactive

# count of solved cases: 4
{"columns": ["MOLECULAR STRING", "CLASS NAME"],
 "data": [
  ["COc1ccc2cc(S(=O)(=O)N[C@H](CC(=O)N[C@H](Cc3ccc(CN4[C@H](C)CCC[C@@H]4C)cc3)C(=O)N(C)C(C)C)c3ccc4c(c3)OCO4)ccc2c1", "active"],
  ["O=C(O)c1ccccc1C(=O)OCc1ccccc1", "inactive"],
  ["O=C(OCCCCCCOC(=O)c1ccccc1)c1ccccc1", "inactive"],
  ["O=c1c(-c2ccc(O)cc2)coc2cc(O)cc(O)c12", "inactive"]
]}

Could you now look at the following compound, please?
Request: # lookup: test call for `CCN(CC)C(=O)c1cc(S(=O)(=O)Cc2ccccc2)c(N2CCC(c3ccccc3)CC2)cc1N(CC)CCN(C)C`
Result: active

meta.source: PubChem BioAssay (EPA / NIEHS)
